Target: T1, human EphA4 (Homo sapiens, UniProt P54764)
T1 construct: made in house; not restated for the human SEAP-His protein
T1 sequence (P54764 20-547): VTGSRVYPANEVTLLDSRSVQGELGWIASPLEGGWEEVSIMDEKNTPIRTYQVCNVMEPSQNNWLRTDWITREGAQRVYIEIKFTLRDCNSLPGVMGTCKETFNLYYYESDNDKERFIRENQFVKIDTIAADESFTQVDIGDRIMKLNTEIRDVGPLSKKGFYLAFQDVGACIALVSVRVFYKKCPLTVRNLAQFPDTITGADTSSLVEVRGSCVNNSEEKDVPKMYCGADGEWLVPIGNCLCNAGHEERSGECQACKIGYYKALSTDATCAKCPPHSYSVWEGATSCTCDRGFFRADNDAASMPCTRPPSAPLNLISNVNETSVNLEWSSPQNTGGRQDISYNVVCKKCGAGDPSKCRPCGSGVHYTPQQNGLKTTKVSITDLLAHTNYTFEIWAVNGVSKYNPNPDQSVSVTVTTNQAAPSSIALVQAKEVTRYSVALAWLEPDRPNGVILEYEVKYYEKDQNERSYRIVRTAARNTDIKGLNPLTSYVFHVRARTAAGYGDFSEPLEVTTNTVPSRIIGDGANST
Assay: Affinity of humanized antibodies by SPR (Biacore T200)
Assay type: binding
Settings: human EphA4 extracellular region-SEAP-His; KD=kd/ka
Overview of recorded Kd for various molecules
// units = nM; emit number, no label

query: // returns reported Kd for input 69 (antibody, V domains shown, synthetic humanized antibody heavy chain variable region sequence; synthetic humanized antibody light chain variable region sequence) VH: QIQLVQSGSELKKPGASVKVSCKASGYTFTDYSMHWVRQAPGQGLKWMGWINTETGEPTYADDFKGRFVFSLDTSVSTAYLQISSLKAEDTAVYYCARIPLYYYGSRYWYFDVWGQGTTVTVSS VL: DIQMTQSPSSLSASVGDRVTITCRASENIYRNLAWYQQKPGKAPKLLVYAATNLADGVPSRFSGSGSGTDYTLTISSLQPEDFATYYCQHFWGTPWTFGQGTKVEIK
result: 1.1

query: Entry 96 (antibody, V domains shown, constant regions without entry; synthetic humanized antibody light chain variable region sequence; synthetic humanized antibody heavy chain variable region sequence) VL: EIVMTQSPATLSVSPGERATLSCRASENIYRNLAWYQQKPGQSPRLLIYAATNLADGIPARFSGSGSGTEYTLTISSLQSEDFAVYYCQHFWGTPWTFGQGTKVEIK VH: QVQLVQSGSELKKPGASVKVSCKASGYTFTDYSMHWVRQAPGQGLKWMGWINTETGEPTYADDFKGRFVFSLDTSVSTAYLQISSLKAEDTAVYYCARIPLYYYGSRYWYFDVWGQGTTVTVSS please
result: 1.1

query: Entry 67 (antibody, V domains shown, synthetic humanized antibody heavy chain variable region sequence; synthetic humanized antibody light chain variable region sequence) VH: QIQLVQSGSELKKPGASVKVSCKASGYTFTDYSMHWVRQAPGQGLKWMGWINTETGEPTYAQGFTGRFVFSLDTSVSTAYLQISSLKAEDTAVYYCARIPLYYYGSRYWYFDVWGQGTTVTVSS VL: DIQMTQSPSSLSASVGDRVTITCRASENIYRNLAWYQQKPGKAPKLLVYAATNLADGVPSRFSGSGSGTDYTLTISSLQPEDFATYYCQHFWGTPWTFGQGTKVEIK please
result: 1.1

// switching to the query molecule
query: // returns reported Kd for input 91 (antibody, V domains shown, constant regions without entry; synthetic humanized antibody light chain variable region sequence; synthetic humanized antibody heavy chain variable region sequence) VL: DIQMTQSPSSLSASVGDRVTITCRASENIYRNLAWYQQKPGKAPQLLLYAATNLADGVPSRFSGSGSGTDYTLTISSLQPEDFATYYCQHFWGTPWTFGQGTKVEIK VH: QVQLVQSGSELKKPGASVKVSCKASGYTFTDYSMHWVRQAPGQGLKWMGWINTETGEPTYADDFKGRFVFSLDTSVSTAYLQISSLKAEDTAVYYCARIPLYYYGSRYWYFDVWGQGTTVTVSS
result: 1.3

Origin of measurements: patent US10428140B2
